# Tested on: CD4+ T cells
# procedure details: exogenous autologous normal donor restimulation assay, TNFα/IFNγ double positive CD4+ T cells by flow cytometry
# Type: cell-based, human
# experimental context: maximum CD4+ T-cell response (TNFα and IFNγ), donor independent; peptide pool 10 μg/mL; healthy donors
readout kind: Fold change (CD4+) vs. DMSO (fold)
Answers are plain numbers, in fold.

Some solved entries appear below for comparison.
[
  {
    "polymer sequence": "EEDREKYRWMAPFVPGQVWTWEYFL [AS28, neoantigen, alternative splicing of HYDIN]",
    "Fold change (CD4+) vs. DMSO, fold": 12.43
  },
  {
    "polymer sequence": "VIPGDLSEAHGYSFS [AS5, neoantigen, alternative splicing of PLAG1]",
    "Fold change (CD4+) vs. DMSO, fold": 17.14
  },
  {
    "polymer sequence": "QTQEETDRDRGSWSCAVA [AS64, neoantigen, alternative splicing of IQGAP3]",
    "Fold change (CD4+) vs. DMSO, fold": 5.43
  }
]

Could you now look at the following sequence, please?
Please look up its Fold change (CD4+) vs. DMSO: VEDEEKKEGSMLVAPTSPPSLEAGTHFIHLTGTTVSAGVPEEMPATTLRREVF [AS93, neoantigen, alternative splicing of ACIN1]
253.72

----------
# Test system: CD8+ T cells
# procedure details: exogenous autologous normal donor restimulation assay, TNFα/IFNγ double positive CD8+ T cells by flow cytometry
# Format: cell-based, human
# experimental context: maximum CD8+ T-cell response (TNFα and IFNγ), donor independent; peptide pool 10 μg/mL; healthy donors
readout kind: Fold change (CD8+) vs. DMSO (fold)
Numbers only, in fold.

[
  {
    "polymer sequence": "HFSRLCGPVSHLSAHLAHLR [AS119, neoantigen, alternative splicing of SMAD6]",
    "readout kind": "Fold change (CD8+) vs. DMSO",
    "unit name": "fold",
    "reading": 1.32
  },
  {
    "polymer sequence": "CLRPSLSLASRGFQNP [AS88, neoantigen, alternative splicing of UPK3B]",
    "readout kind": "Fold change (CD8+) vs. DMSO",
    "unit name": "fold",
    "reading": 3.13
  }
]

Take each entry in turn and give its Fold change (CD8+) vs. DMSO.
1. IPPHLQWESTRQTEWISVREFHLESSLYP [AS61, neoantigen, alternative splicing of IGF2BP3]
2. SMMEGVIQLSFKAIVCLLSCLDLLSLFRVVRHLS [AS94, neoantigen, alternative splicing of AFDN]
3. FKIPKFSIVLSSNSAFRCDPLSSRPRCFGGSLEAP [AS27, neoantigen, alternative splicing of GTSE1]
4. QHLQQEACVTSAGKQS [AS19, neoantigen, alternative splicing of PLEKHG4B]

[4.86, 1080.99, 108.36, 182.29]

Requested read-out: Fold change (CD8+) vs. DMSO. Entry: PSSLPGPTGKYQSMVFGAWLMSVNISVYTLLEHG [AS140, neoantigen, alternative splicing of MUC16]
115.04

----------
# Test system: CD8+ T cells
# procedure details: exogenous autologous normal donor restimulation assay, TNFα/IFNγ double positive CD8+ T cells by flow cytometry
# Format: cell-based, human
# experimental context: maximum CD8+ T-cell response (TNFα and IFNγ), donor independent; peptide pool 10 μg/mL; healthy donors
readout kind: Fold change (CD8+) vs. DMSO (fold)
Numbers only, in fold.

Past entries and their recorded results:
[
  {
    "polymer sequence": "PSPSTPNHSQQAICHPGRRP [AS105, neoantigen, alternative splicing of MPRIP]",
    "experimental system": "CD8+ T cells",
    "Fold change (CD8+) vs. DMSO / fold": 1.76
  },
  {
    "polymer sequence": "VLRKTAHRSTTARCSCPPWLTCWPRVAAPGALSTVAREASWWLLTTEVV [AS74, neoantigen, alternative splicing of TRPM5]",
    "experimental system": "CD8+ T cells",
    "Fold change (CD8+) vs. DMSO / fold": 1018.49
  },
  {
    "polymer sequence": "VLTVTSTDQEYLDLSAP [AS44, neoantigen, alternative splicing of FGFR3]",
    "experimental system": "CD8+ T cells",
    "Fold change (CD8+) vs. DMSO / fold": 85.94
  },
  {
    "polymer sequence": "LLFPYNQLDLHLHRPSGSRKNEIHWDKCFSSED [AS68, neoantigen, alternative splicing of PKHD1L1]",
    "experimental system": "CD8+ T cells",
    "Fold change (CD8+) vs. DMSO / fold": 17.52
  },
  {
    "polymer sequence": "GDPAKVVEIPRLL [AS31, neoantigen, alternative splicing of MECR]",
    "experimental system": "CD8+ T cells",
    "Fold change (CD8+) vs. DMSO / fold": 4.54
  },
  {
    "polymer sequence": "LSPGGACVDIDECDRQ [AS81, neoantigen, alternative splicing of FBN3]",
    "experimental system": "CD8+ T cells",
    "Fold change (CD8+) vs. DMSO / fold": 10.83
  }
]

Kindly consider the entry below.
Name the reported Fold change (CD8+) vs. DMSO value associated with the sequence VEDEEKKEGSMLVAPTSPPSLEAGTHFIHLTGTTVSAGVPEEMPATTLRREVF [AS93, neoantigen, alternative splicing of ACIN1]
459.18
